- Procedure summary: Displacement of [3H]MLA from alpha7* nAChR in Sprague-Dawley rat brain P2 membrane after 180 mins by liquid scintillation counting
pKi: −log10 of the molar value.
Measured pKi values are reported for all entries that follow.
Assay readout: pKi

[
  {
    "Structure smiles": "CCCCCCCCn1cc(CN(C)C)c2ccccc21",
    "Observed value": "< 5.00"
  },
  {
    "Structure smiles": "CC(C)=CCn1cc(CC[N+](C)(C)C)c2ccc(Br)cc21",
    "Observed value": 5.81
  },
  {
    "Structure smiles": "CC(C)=CCn1cc(C[N+](C)(C)C)c2ccc(Br)cc21",
    "Observed value": "< 6.00"
  },
  {
    "Structure smiles": "CCCCCCCCn1cc(C[N+](C)(C)C)c2ccccc21",
    "Observed value": "< 5.30"
  },
  {
    "Structure smiles": "CC(C)=CCn1cc(CC[N+](C)(C)C)c2ccccc21",
    "Observed value": 6.06
  },
  {
    "Structure smiles": "CCCCCCCCCCn1cc(CCC[N+](C)(C)C)c2ccccc21",
    "Observed value": "< 5.00"
  }
]
